Data origin: patent US9932346B2

test.details: in vitro
experimental.context: dog
metric: CC50 at 3 days

Here's what some known entries look like.
# compound, CC50 at 3 days
records = [
    ("O[C@H]1CCCC[C@@H]1Nc1nc(-c2c[nH]c3ncncc23)ncc1F (racemic)", "> 100 µM"),
    ("O=C(N[C@H]1CCC[C@@H](Nc2nc(-c3c[nH]c4ncncc34)ncc2F)C1)N1CCCC1 (racemic)", "> 25 µM"),
    ("CC(C)(C)C(CC(=O)O)Nc1nc(-c2c[nH]c3ncncc23)c(C(F)(F)F)cc1F (stereo not shown)", "2.48 µM"),
]

// returns reported CC50 at 3 days for input O=C(Nc1ccccc1)N[C@H]1CCC[C@@H](Nc2nc(-c3c[nH]c4ncncc34)ncc2F)C1 (racemic)
> 25 µM

* * *

test.details: in vitro
experimental.context: dog
metric: CC50 at 3 days

Look over these answered cases.
# compound, CC50 at 3 days
rows = [
    ("Cn1cnc(C(=O)N[C@@H]2CCC[C@@H](Nc3nc(-c4c[nH]c5ncncc45)c(C#N)cc3F)C2)c1 [Compound 12]", "> 25 µM"),
    ("Cc1[nH]c2ncncc2c1-c1ncc(F)c(N[C@@H]2CCC[C@H](NC(=O)N3CCCC3)C2)n1 [Compound 83]", "> 25 µM"),
    ("CC(C)(C)C(CC(=O)O)Nc1nc(-c2c[nH]c3ncncc23)c(C#N)cc1F (stereo not shown) [Compound 21]", "13.4 µM"),
]

Go through the list and state CC50 at 3 days for each entry.
1. Cc1ncc2c(-c3ncc(F)c(N[C@@H]4CCC[C@H](NC(=O)N5CCCC5)C4)n3)c[nH]c2n1 [Compound 92]
2. O=C(N[C@H]1CCC[C@@H](Nc2nc(-c3c[nH]c4ncncc34)ncc2F)C1)c1cccnc1 (racemic) [Compound 49]
3. O=C(N[C@H]1CCC[C@@H](Nc2nc(-c3c[nH]c4ncncc34)ncc2F)C1)c1ccncc1 (racemic) [Compound 33]
4. Cc1cc(C(=O)N[C@@H]2CCC[C@@H](Nc3nc(-c4c[nH]c5ncncc45)ncc3F)C2)no1 (racemic) [Compound 34]
5. O=C(N[C@H]1CCC[C@@H](Nc2nc(-c3c[nH]c4ncncc34)c(F)cc2F)C1)N1CCCC1 [Compound 23]
6. Cc1cc(C(=O)N[C@H]2CCC[C@@H](Nc3nc(-c4c[nH]c5ncncc45)ncc3F)C2)nn1C (racemic) [Compound 30]
7. Cn1cnc(C(=O)N[C@H]2CCC[C@@H](Nc3nc(-c4c[nH]c5ncncc45)ncc3F)C2)c1 [Compound 14]

1: > 25 µM; 2: > 25 µM; 3: > 100 µM; 4: > 25 µM; 5: > 25 µM; 6: > 25 µM; 7: > 25 µM

Okay, here is my list. What is CC50 at 3 days for each of these?
1. O=C(N[C@H]1CCC[C@@H](Nc2nc(-c3c[nH]c4ncncc34)ncc2F)C1)C1CCC1 (racemic) [Compound 37]
2. Fc1cnc(-c2c[nH]c3ncncc23)nc1NC1CCCCC1 [Compound 65]

1. > 25 µM
2. 11.6 µM

* * *

test.details: in vitro
experimental.context: dog
metric: CC50 at 3 days (µM)
Give bare numbers, in µM.

# molecule, metric, measurement.unit, assay.value
data = [
    ("N#Cc1cc(F)c(N[C@@H]2CCC[C@H](NC(=O)N3CCCC3)C2)nc1-c1c[nH]c2ncncc12 (stereo in doubt) [Compound 9]", "CC50 at 3 days", "µM", 8.74),
]

Next:
Look up CC50 at 3 days for this molecule: Fc1cnc(-c2c[nH]c3ncncc23)nc1NC1[C@H]2CC3C[C@H](C2)C[C@H]1C3 (stereo partly shown) [Compound 57]
5.2
